target: Mitogen-activated protein kinase kinase kinase 2 (Homo sapiens) (UniProt Q9Y2U5); assay: wildtype MEKK2 PB1-MEK5 interaction enhancers or blockers – biochemical, single concentration, multiplex bead flow cytometry, confirmation (AID 1892); conditions: Alexa488-MEK5 binding to MEKK2 WT, at 10 µM, actives lie on both sides
Hit rate of the full screen: of about 5,900 compounds, about 140 (2.4%) were called active. The entries come from a sample that favours actives as a whole.

[
  {
    "compound": "O=C(CCCO)N/N=C/c1cc(Br)ccc1O",
    "binding response (% of control) (%)": 106
  },
  {
    "compound": "Cn1c(=NC(=O)CSCC(=O)N2CCCCC2)sc2ccccc21",
    "binding response (% of control) (%)": 103
  },
  {
    "compound": "COc1ccc(N2CCN(Cc3nnc(-c4ccccc4)o3)CC2)cc1",
    "binding response (% of control) (%)": 94
  },
  {
    "compound": "O=C(CN1C(=O)c2cccnc2Oc2ccc(Cl)cc21)Nc1ccc(F)cc1",
    "binding response (% of control) (%)": 99
  },
  {
    "compound": "CCN(CC)C(=O)CC(c1ccc2c(c1)OCO2)c1c(OC)cc(OC)c2c(-c3ccccc3)cc(=O)oc12 (stereo unspecified)",
    "binding response (% of control) (%)": 99
  },
  {
    "compound": "COc1cc(NC(=S)NCc2ccco2)c(OC)cc1Cl",
    "binding response (% of control) (%)": 108
  }
]

---

Form field: binding response (% of control) (one value per entry).
target: Mitogen-activated protein kinase kinase kinase 2 (Homo sapiens) (UniProt Q9Y2U5); assay: wildtype MEKK2 PB1-MEK5 interaction enhancers or blockers – biochemical, single concentration, multiplex bead flow cytometry, confirmation (AID 1892); settings: Alexa488-MEK5 binding to MEKK2 WT, at 10 µM, actives lie on both sides
Among all 5,900 compounds or so, about 140 (2.4%) were called active. This excerpt belongs to a sample that is enriched for actives.

[
  {
    "compound": "COc1cc(-c2nc(-c3ccncc3)no2)cc(OC)c1OC",
    "binding response (% of control) / %": 104
  },
  {
    "compound": "CCCCCCCCCCOC(=O)Cn1c(COc2ccc(C)cc2)[n+](C)c2ccccc21",
    "binding response (% of control) / %": 217
  },
  {
    "compound": "O=C(Nc1ccc(Cl)cn1)c1cnn2cccnc12",
    "binding response (% of control) / %": 108
  },
  {
    "compound": "COc1cccc(/C(C)=N/Nc2ncc(Cl)cc2Cl)c1",
    "binding response (% of control) / %": 100
  },
  {
    "compound": "O=C(O)CCCC(=O)Nc1ccc(Oc2cccc(C(F)(F)F)c2)nc1",
    "binding response (% of control) / %": 106
  },
  {
    "compound": "CCCCNC(=O)N1CCCC(N(C)CCc2ccc(OC)c(OC)c2)C1 (stereo unspecified)",
    "binding response (% of control) / %": 103
  },
  {
    "compound": "O=C(O)CC(Cc1ccccc1)C(=O)Nc1ccc([N+](=O)[O-])cc1 (stereo unspecified)",
    "binding response (% of control) / %": 96
  },
  {
    "compound": "Cc1ccc(C(=O)NC(=S)Nc2ccc3[nH]c(=O)[nH]c3c2)cc1C",
    "binding response (% of control) / %": 101
  },
  {
    "compound": "CN(C)c1ccc(/C=C2\\NC(=S)N(Cc3ccccc3)C2=O)cc1",
    "binding response (% of control) / %": 86
  },
  {
    "compound": "CCCCCCCCCCOC(=O)Cn1c(COc2cccc(OC)c2)[n+](C)c2ccccc21",
    "binding response (% of control) / %": 257
  },
  {
    "compound": "CC(C)C(=O)N1c2ccccc2NC2=C(C(=O)CCC2)C1c1ccc(N(C)C)cc1 (stereo unspecified)",
    "binding response (% of control) / %": 116
  },
  {
    "compound": "C/C(=N\\NC(=O)CNC(=O)C(c1ccccc1)c1ccccc1)c1ccc(C)cc1",
    "binding response (% of control) / %": 106
  },
  {
    "compound": "CCn1c(NC(=O)c2ccccc2)c(-c2cccs2)c(=O)c2ccccc21",
    "binding response (% of control) / %": 102
  },
  {
    "compound": "Cc1ccc(CNC(=O)Cn2c(=O)c3sccc3n(Cc3cccc([N+](=O)[O-])c3)c2=O)cc1",
    "binding response (% of control) / %": 103
  },
  {
    "compound": "CCCn1c(=N)n(CC(=O)c2ccc(Cl)c(Cl)c2)c2ccccc21",
    "binding response (% of control) / %": 144
  },
  {
    "compound": "Cc1ccc(NC(=S)N(CCCN2CCCC2)Cc2cccn2Cc2ccc(Cl)cc2)cc1",
    "binding response (% of control) / %": 160
  },
  {
    "compound": "O=C(O)/C(=C/c1cccnc1)NC(=O)c1ccccc1",
    "binding response (% of control) / %": 103
  },
  {
    "compound": "O=C(Nc1ccc2ccccc2c1)Nc1ccc2snnc2c1",
    "binding response (% of control) / %": 155
  },
  {
    "compound": "CN1CCN(/N=C/c2ccc(C#N)cc2)CC1",
    "binding response (% of control) / %": 92
  },
  {
    "compound": "CN1C(=O)/C(=C\\c2ccc(-c3ccccc3)o2)SC1=S",
    "binding response (% of control) / %": 23
  },
  {
    "compound": "Cc1cccc(-c2ncc(CN3CCC(CO)(CCCc4ccccc4)CC3)cn2)c1",
    "binding response (% of control) / %": 131
  }
]
